- testProtocol: Pharmacokinetics after intravenous and oral administration in rats
- Assay type: in vivo, rat
- appliedConditions: rat, plasma, iv dosing, 1 mg/kg
Listing: half-life of selected compounds

Recorded results for 3 compounds are shown here.
• COC1COC2C(Nc3nc(Nc4cnn(C)c4)ncc3Cl)COC12 (stereo not shown) [Ex. 6] = 0.83 h
• Cn1cc(Nc2ncc(Cl)c(NC3COC4C(OCCO)COC34)n2)cn1 (stereo not shown) [Ex. 5] = 2.93 h
• CN(c1nc(Nc2cnn(C)c2)ncc1Cl)C1COC2C(O)COC21 (stereo not shown) [Ex. 1] = 1.2 h

Next compound, half-life to be filled in.
Need half-life, item Cn1cc(Nc2ncc(Cl)c(NC3COC4C(NS(C)(=O)=O)COC34)n2)cn1 (stereo not shown) [Ex. 8] 0.34 h
